Test system: SpTbr T-box DNA-binding domain (GST fusion);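 note: protein at 200 nM in PBS on universal double-stranded arrays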
Sequence: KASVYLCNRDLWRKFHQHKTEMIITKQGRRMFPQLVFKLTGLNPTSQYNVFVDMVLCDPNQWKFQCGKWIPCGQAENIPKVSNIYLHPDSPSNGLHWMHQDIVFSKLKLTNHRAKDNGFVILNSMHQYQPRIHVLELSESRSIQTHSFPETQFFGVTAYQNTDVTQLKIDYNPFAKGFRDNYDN
Test: PBM E-score of 8-mer (E-score (dimensionless, -0.5 to 0.5)); higher = stronger binding preference
Conditions: the construct has about 5 more residues each side
The full ranking holds about 33,000 sequences; the median of “E-score (dimensionless, -0.5 to 0.5)” is about -0.046, and the highest 2% start at about 0.36. The sample as a whole holds a higher share of the highest values than the screen did.
readout: PBM E-score of 8-mer
One number for each entry.

[
  {
    "sequence-entry": "AGCTTTCA",
    "experimental-target": "SpTbr T-box DNA-binding domain (GST fusion)",
    "readout": "PBM E-score of 8-mer",
    "quantitative-readout": -0.132
  }
]

The following sequences each have a reported value; give each one's PBM E-score of 8-mer.
1. AGGCGACC
2. CAGTGACA
3. ATTCTCAG
4. CTTCTCAC

[0.012, 0.329, 0.0379, 0.401]

The following sequences each have a reported value; give each one's PBM E-score of 8-mer.
1. AAGTGACA
2. CGGCGCGA
3. AGATCTTC
4. CATAAGTC
5. AACCACCC
6. CAACAAGG
7. AGAGTTTC

1. 0.427
2. 0.318
3. 0.0938
4. -0.18
5. -0.022
6. 0.0674
7. -0.243

====

System: SpTbr T-box DNA-binding domain (GST fusion);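 note: protein at 200 nM in PBS on universal double-stranded arrays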
Sequence: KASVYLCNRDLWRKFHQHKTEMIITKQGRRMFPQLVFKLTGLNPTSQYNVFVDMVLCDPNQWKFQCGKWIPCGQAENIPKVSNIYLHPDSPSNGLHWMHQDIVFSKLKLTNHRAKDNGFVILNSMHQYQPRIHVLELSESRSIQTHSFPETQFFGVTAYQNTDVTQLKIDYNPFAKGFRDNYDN
Assay: PBM E-score of 8-mer (E-score (dimensionless, -0.5 to 0.5)); Tbr is Tbrain of the sea star Patiria miniata (Pm) or the sea urchin Strongylocentrotus purpuratus (Sp); higher = stronger binding preference
Conditions: target sequence: T-box / the construct has about 5 more residues each side
The full ranking holds about 33,000 sequences; the median of “E-score (dimensionless, -0.5 to 0.5)” is about -0.046, and the highest 2% start at about 0.36. This is one part of a sample in which the highest values are shown more often than they occur.
Hi there, I'd appreciate the recorded PBM E-score of 8-mer for every entry that follows.
Numbers only.

Example entries and their recorded answers appear below.
[
  {
    "sequence-entry": "CTTTCAAA",
    "quantitative-readout": -0.203
  },
  {
    "sequence-entry": "GGTGTGTA",
    "quantitative-readout": 0.356
  },
  {
    "sequence-entry": "CATTTTCA",
    "quantitative-readout": 0.0656
  },
  {
    "sequence-entry": "CGCCGGCG",
    "quantitative-readout": 0.162
  },
  {
    "sequence-entry": "CAGTATTC",
    "quantitative-readout": -0.193
  }
]

The following sequences each have a reported value; give each one's PBM E-score of 8-mer.
1. AGTTGTCA
2. CATAGAGA
3. GACCGTCA
4. CGTGACAC
5. TCAATCGA
6. CTTTCACA

[0.393, -0.161, 0.0838, 0.38, -0.0374, 0.444]

The following sequences each have a reported value; give each one's PBM E-score of 8-mer.
1. AGTGATAA
2. AACCTCTC
3. CGTGTGGA
4. AGACTGCG
5. CGCAGAGA
6. AGTGCGAG
7. CAGGACTA
8. ATTAACAC

0.278
-0.0774
0.306
0.0627
-0.217
0.408
-0.191
0.45

The following sequences each have a reported value; give each one's PBM E-score of 8-mer.
1. ATAGAGCG
2. AGTAATCG
3. TGTGATAA
4. CGTCTACA
5. ATAAGTCA

1. -0.0811
2. 0.087
3. 0.377
4. 0.0944
5. -0.102

The following sequences each have a reported value; give each one's PBM E-score of 8-mer.
1. CGTGATAA
2. CGACTGAC
3. AATCTGAG
4. AACCTCTG
5. CGTGACGA
6. ACAACACT
7. CCAACACG
8. GGTGCATA

1. 0.27
2. 0.0364
3. 0.0009
4. -0.137
5. 0.311
6. 0.345
7. 0.232
8. 0.0222

The following sequences each have a reported value; give each one's PBM E-score of 8-mer.
1. ACTCATAA
2. GGTGACGA
3. AGTGTGGG
4. CATTGTCG

1: -0.0942; 2: 0.418; 3: 0.399; 4: 0.038

The following sequences each have a reported value; give each one's PBM E-score of 8-mer.
1. AGTGCGAC
2. CCAACACA
3. AGTGCGAT

1: 0.341; 2: 0.299; 3: 0.429

The following sequences each have a reported value; give each one's PBM E-score of 8-mer.
1. GAAGTCGA
2. ACTGCGAT

1. 0.107
2. 0.117

The following sequences each have a reported value; give each one's PBM E-score of 8-mer.
1. GGTTGTCA
2. CGTGCGAC
3. AATGCGAT
4. GGTACCAA
5. AGTTGGCC
6. CGGCGTGC
7. CCTGTGAC
8. GAGTCGAC

[0.338, 0.238, 0.0396, -0.0861, -0.112, 0.00958, 0.263, 0.107]
